Where do these numbers come from? They come from ChEMBL document CHEMBL5096223.

Assay: Selectivity index, ratio of IC50 for cytotoxicity against human HBE cells to IC50 for cytotoxicity against human NCI-H1975 cells harboring EGFR T790M/L858R mutant
Type: toxicity, cell-based
Conditions: read-out: Ratio IC50
measured property: selectivity ratio
Just the number, please.

Ask: Report selectivity ratio for C=CC(=O)N1CCC(Oc2nc(Nc3ccc(N4CCN(C)CC4)cc3)nc3ccsc23)CC1
Result: 13

###

Tested on: ASPC1
Experiment: Antiproliferative activity against human ASPC1 cells harboring KRAS G12D mutant assessed as reduction in cell growth incubated for 72 hrs by MTT assay
Format: functional, cell-based
Conditions: ASPC1, 72 h
measured property: pIC50
Just the number, please; pIC50 means minus log10 of the concentration in mol/L.

Illustrative cases are given below, each with its answer.
1) C=CC(=O)N1CCC(Oc2nc(Nc3cnn(C)c3)nc3[nH]ccc23)CC1    5.94
2) C=CC(=O)N1CCC(Oc2nc(Nc3ccc(N4CCN(C)CC4)c(F)c3)nc3[nH]ccc23)CC1    6.40
3) C=CC(=O)N1CCC(Oc2nc(Nc3ccc(N4CCN(C)CC4)cc3OC)nc3[nH]ccc23)CC1    5.15

Ask: Report pIC50 for C=CC(=O)N1CCC(Oc2nc(Nc3ccc(N4CCOCC4)cc3OC)nc3ccsc23)CC1
Result: 6.29
